# Method: protein stability index of a GFP-peptide fusion (yeast GPS) (PSI 1-4); higher = more stable; sorted into four equal gates, so the index is relative within each strain
# Assay context: pdr5∆

Sequence text	protein stability index
IPNLTAKPFQVTKEYFQ [FAS1]	2.95
LISGAGANPRVLSTFTA [RPN10]	2.04
RRRLLGPAAAKPMAFSN [MTR3]	3.17
PHLIIQNHNSKSTDNSA [IRR1]	2.88
GCNNLIKNISNRVGLTL [ARP9]	2.63
FTNVLTKYSDVLGFLQL [YJL039C/NUP192]	2.07
SAQAETEALLLEHDVEY [DIS3]	3.22
QAPFSTSTKDKNSSTSN [MED1]	3.24
SNTMYSVRLFSFLDPLN [YJL039C/NUP192]	1.48
TDVLEISKQRTFAVILF [YMR129W/POM152]	2.52
ASYLTPLLEAKKLVWPL [SSN2]	2.04
EKACQVLKYMLLSKIML [RPN6]	1.49
KSDTVTSASQPFKFGKT [YOR098C/NUP1]	1.71
KVLCLAVAVGNVEMEED [RPL1A]	1.67
TEKLSPLASEESLTNSN [YGL100W/SEH1]	3.25
RYNRAVPDSKIRIYDLG [RPL10]	3.04
LTIDDLGVASFHGTSTK [FAS2]	3.01
TVAHIQYDFKAVLEEND [RPN14]	2.72
KRELLKRYRLKESQLPR [RPB5]	3.29
YTDRDQDEVNKGPAIDE [NNF1]	2.01
RILKNKAEYLKNCPITQ [RPC40]	3.12
FLFHAISGREGLVDTAV [RPO31]	2.89
CNERVPLSVATELMNRS [SRP72]	2.52
DLTMGQVGERIKQTFKN [RPO21]	2.81
PEYYSTARVMGGLKNGV [DIS3]	3.24
GLTLSTTNLDIDLLTFQ [RPP1]	3.04
GKIRGVEDDLVTVQTEL [SMC2]	2.62
EVAQYLQEIYQTDAIKS [RPN5]	2.44
LTVAMYINSDSVNPAML [RPO31]	2.47
VFERFKTKILEVAIRDV [IRR1]	1.75
NNHNMRNNSNNKTSNNN [SWI1]	2.55
DDIYDISLLKNRRKQSF [RPN4]	3.08
IRKGANDGEVYQKIFKP [PRE9]	1.81
LRDESLTVDNLSIAIVG [PRE5]	2.26
TQKRTHVLKKNPLKNKQ [RPL4A]	2.52
ICYDVNDWQMLEMLKPC [RPB2]	2.67
IVPSMTHLEIEPFTILG [RET1]	2.05
RKALPKEPKKLLPNSKN [DSN1]	2.69
PLRMETIPILESDSKAT [DSN1]	2.54
LFAREIAKSQDKKSCSV [DPB4]	3.24
LASPEVKVHMDSETSDP [DIS3]	3.38
DTPTSGKHNLTIWCVCD [BRR2]	3.22
KRQLIKERNQKFQLQNQ [YIL149C/MLP2]	3.17
TFPPEVLARISPELSLQ [RRP43]	2.87
PLKRAIWLIKCCYFIEW [SRB8]	2.12
NLSAFKIVYIAPLKALV [BRR2]	1.54
QYYLSVLNQQLPIESQF [BRR2]	2.66
REPRVVSALQMLKQHLF [PUP1]	3.05
FDNYQRNNFLAENSHTQ [PUP1]	3.26
RHKNKHIQGFPTLGERL [DSN1]	3.64
TDGELDIEFINSLLTIV [RPC34]	2.68
AFDKHMNLVLNECIEER [SMB1]	2.34
AYFLIIVPVISTIENVL [COB]	1.75
SRQKSGLFDSFTNGVLA [YML031W/NDC1]	1.5
AAGIWTCSCCKKTVAGG [RPL43A]	3.17
LEGTRVSLEERTKNLVS [SMC4]	3.42
SNNELVRTNTLTKAAIV [RPS8A]	3.05
LGPLSYQNMAFITAKDK [YJR042W/NUP85]	2.22
EYKVITSLQGTYEAIEI [YMR129W/POM152]	2.99
YEQHIENIEPLDPINLP [PRP8]	2.9
